# System: rhLYPLA2
# measurement.notes: LYPLA1 and LYPLA2 inhibitors, biochemical, gel-based ABPP, fluorescence, recombinant and endogenous enzyme (AID 493105)
# setup.conditions: fluorescent probe labeling, membrane fraction, at 20 µM, active compounds read high
Listed next: entries and their corresponding inhibition.
reported.metric: inhibition (%)

> print(dat)
                                   molecule  reported.metric  numeric.value
1  COc1ccc(-n2c(C)c([N+](=O)[O-])c3ccc(O)c(CN4CCCCC4)c32)cc1       inhibition              0
2  Cc1[nH]c2ccccc2c1C(=O)CN1CCN(C/C=C/c2ccccc2)CC1       inhibition              0
3  O=C(COc1ccc(Br)cc1)N1CCN(c2ccc([N+](=O)[O-])c(N3CCCCC3)c2)CC1       inhibition              7
4  COc1ccc(OCC(O)CN2CCC(CN3C(=O)c4cccc5cccc(c45)C3=O)CC2)cc1 (stereo not given)       inhibition              9
5  CC(=O)c1ccc(N2CCN(C(=O)c3cccc(Oc4ccccc4)c3)CC2)cc1       inhibition             12
